- protocol-summary: refractive index (Na D-line) (dimensionless); xn = mol fraction of the nth substance listed
- experimental-conditions: 298.15 K; 100.5 kPa; Liquid; Standard Abbe refractometry; x1 = 0.85
result-type: refractive index
Response field accepts a number only; no unit should be typed.

Some solved entries appear below for comparison.
compound: CCOC(=O)c1ccccc1 [ethyl benzoate] + CCO
refractive index: 1.49401
//
compound: CCCC(=O)OCCC(C)C [3-methylbutyl butanoate] + CCO
refractive index: 1.40559
//
compound: CCCCCC(=O)OCC [ethyl hexanoate] + CCO
refractive index: 1.40238
//
compound: CCCCCCCC(=O)OCC [ethyl octanoate] + CCO
refractive index: 1.41276
//
compound: CC(=O)OCCC(C)C [3-methylbutyl ethanoate] + CCO
refractive index: 1.3958

Turning now to a further record.
GET /values?readout=refractive index&item= CCOC(=O)Cc1ccccc1 [ethyl phenylacetate] + CCO
1.48707
